Assay: Toxicity studies comparing diazolidinyl urea with formaldehyde
Assay type: in vivo
Details: in vivo; route and species not given; read-out: LD50
Source text: Unlike the typical histological fixing agents, the active agents of the invention have extremely low toxicity. For example, toxicity studies comparing diazolidinyl urea of the invention with formaldehyde of the prior art show the following: […]
readoutLabel: LD50

Reported LD50 ( C=O [Formaldehyde, formaldehyde, reference compound] ) = 800 mg/kg
